Data credit: the supplement of paper PMC9262897

# Test system: E. coli TESEC Mtb Alr
# experiment: growth (OD600 after 10 h); higher = more growth (less inhibition)
# condition_set: arabinose 100 nM; compound 0.1 mM; raw OD600 reference: median of DMSO wells 0.413, cell-free background 0.052
Structures can show the parent of a compound that is named as a salt.

compound: OCC(O)CN1CCN(c2ccccc2)CC1 (racemic) [Dropropizine (R,S)]
growth: 0.404

compound: CN1CCN(CCCN2c3ccccc3Sc3ccc(Cl)cc32)CC1 [Prochlorperazine dimaleate]
growth: 0.287

compound: C[C@]12C=CC(=O)C=C1CC[C@@H]1[C@@H]2C(=O)C[C@@]2(C)[C@H]1CC[C@]2(O)C(=O)CO [Prednisone]
growth: 0.412

compound: O=C1OCCN1/N=C/c1ccc([N+](=O)[O-])o1 [Furazolidone]
growth: 0.0572

compound: CC(=O)OCC(=O)[C@@]1(OC(C)=O)[C@@H](C)C[C@H]2[C@@H]3C[C@H](F)C4=CC(=O)C=C[C@]4(C)[C@@]3(F)[C@@H](O)C[C@@]21C [Diflorasone Diacetate]
growth: 0.394

compound: CC(C)C(=O)Nc1ccc([N+](=O)[O-])c(C(F)(F)F)c1 [Flutamide]
growth: 0.383

compound: CN[C@@H]1[C@@H](O)[C@@H](O[C@@H]2[C@@H](O)[C@H](O[C@H]3OC(CN)=CC[C@H]3N)[C@@H](N)C[C@H]2N)OC[C@]1(C)O [Sisomicin sulfate]
growth: 0.231

compound: CCC(C)n1ncn(-c2ccc(N3CCN(c4ccc(OCC5COC(Cn6cncn6)(c6ccc(Cl)cc6Cl)O5)cc4)CC3)cc2)c1=O (stereo unspecified) [Itraconazole]
growth: 0.441

compound: Cn1c(NCCN(CCO)CCCc2ccc([N+](=O)[O-])cc2)cc(=O)n(C)c1=O [Nifekalant]
growth: 0.4

compound: CN(C)CCCC1(c2ccc(F)cc2)OCc2cc(C#N)ccc21 (stereo unspecified) [Citalopram Hydrobromide]
growth: 0.415

compound: COc1ccc2c(c1)N(C[C@H](C)CN(C)C)c1ccccc1S2 [Methotrimeprazine maleat salt]
growth: 0.402

compound: CC[C@@H]1C(=O)OC[C@@H]1Cc1cncn1C [Pilocarpine nitrate]
growth: 0.391

compound: N[C@@H](Cc1ccc(O)c(O)c1)C(=O)O [Levodopa]
growth: 0.413

compound: CCC(C)(CN(C)C)OC(=O)c1ccccc1 (stereo unspecified) [Amyleine hydrochloride]
growth: 0.411

compound: C1CCC(C(CC2CCCCN2)C2CCCCC2)CC1 (stereo unspecified) [Perhexiline maleate]
growth: 0.168

compound: CC1=C(/C=C/C(C)=C/C=C/C(C)=C\C(=O)O)C(C)(C)CCC1 [Isotretinoin]
growth: 0.438
